For each entry below, report its TGI value.
test system: HCT-15 colon; test: NCI tumour cell line growth inhibition, 48 h

May I ask what TGI has been recorded for O=C1C=CC(=O)C(c2cc(-c3ccc(Cl)cc3)nn2-c2ccccc2)=C1 ?
> 100 µM

May I ask what TGI has been recorded for COc1ccc2c3c([nH]c2c1CC=C(C)C)C(=O)C=C(C)C3=O ?
> 25 µM

May I ask what TGI has been recorded for Nc1nonc1-c1nc2cnccc2n1C1CCCCC1 ?
> 25 µM

May I ask what TGI has been recorded for COc1ccc(-c2nnc(-c3nsc4ccccc34)o2)cc1 ?
> 100 µM

May I ask what TGI has been recorded for COCn1cnc2c(=O)n(-c3ccc(C)cc3)c(=S)n(-c3ccc(C)cc3)c21 ?
> 100 µM

May I ask what TGI has been recorded for CC(=O)Nc1ccc(C2C(C(=O)Nc3ccccc3C)=C(C)NC(C)=C2C(=O)Nc2ccccc2C)cc1 ?
> 100 µM

---

tested on: A498 renal; assay: NCI tumour cell line growth inhibition, 48 h
MEASURED PARAMETER: TGI

May I ask what TGI has been recorded for C#Cc1nc(N)c2ncn(C3OC(COS(N)(=O)=O)C(O)C3O)c2n1 (stereo unspecified) ?
< 0.0302 µM

May I ask what TGI has been recorded for NC(=Nc1ccc(Cl)cc1)c1ccccc1N ?
> 100 µM

May I ask what TGI has been recorded for O=C1Cc2ccccc2N1/N=C\c1ccc([N+](=O)[O-])cc1 ?
> 100 µM

May I ask what TGI has been recorded for O=c1c2ccccc2nc(-c2ccccc2Cl)n1NCC1(O)OCC(O)C(O)C1O (stereo unspecified) ?
> 100 µM

May I ask what TGI has been recorded for C/C(O)=c1\cc(C#N)c(=C(C#N)C#N)nc1C ?
> 100 µM

May I ask what TGI has been recorded for COc1ccccc1NCc1nnc(CCCCCCCCc2nnc(CNc3ccccc3OC)o2)o1 ?
> 100 µM

---

tested on: HCT-116 colon; test: NCI tumour cell line growth inhibition, 48 h
For each entry below, report its TGI value.

May I ask what TGI has been recorded for COC(=O)Cc1c([C@H]2[C@H](CC(=O)OC)c3ccccc3N2C(=O)C(F)(F)F)[nH]c2ccccc12 ?
> 100 µM

May I ask what TGI has been recorded for COC(=O)/C(=C(\C)NC(C)=O)c1c(C(=O)OC)[nH]c2ccccc12 ?
> 100 µM

May I ask what TGI has been recorded for CC1c2ccccc2Cn2cc3c(c21)C(=O)c1cccc(OP(=O)(O)OCc2ccccc2)c1C3=O (stereo not given) ?
> 100 µM

May I ask what TGI has been recorded for COc1ccc(C2=Nn3c(nnc3-c3ccccc3)S/C2=C\c2ccc(-c3ccc([N+](=O)[O-])cc3)o2)cc1 ?
> 100 µM

May I ask what TGI has been recorded for CCc1nc(N)nc(N)c1-c1ccc2c(c1)nnn2CCc1ccccc1 ?
> 61.1 µM

---

For each entry below, report its TGI value.
tested on: MOLT-4 leukemia; experiment: NCI tumour cell line growth inhibition, 48 h

May I ask what TGI has been recorded for O=C(CCc1ccc(O)cc1)NCCc1cccc(O)c1 ?
> 50 µM

May I ask what TGI has been recorded for CC1=CP(=O)(OC(C)C)CC(C)=C1Cl (stereo not given) ?
> 100 µM

May I ask what TGI has been recorded for Cc1ccc(C2(C)CC/C(=N/N=C3/CCC(C)(c4ccc(C)c(C)c4)c4cc(C)c(C)cc43)c3cc(C)c(C)cc32)cc1C (stereo not given) ?
> 100 µM

May I ask what TGI has been recorded for COCn1cnc2c(=O)n(-c3ccc(C)cc3)c(=S)n(-c3ccc(C)cc3)c21 ?
> 100 µM

May I ask what TGI has been recorded for CSC(N)=Nc1cccc2ccccc12 ?
> 10 µM
